Assign Km to each entry below.
- test_description: Activity of Aminoglycoside […] 2a R92H/D268N mutant using ATP/GTP as second substrate by spectrophotometric assay
Give just the numeric value; µM need not be written.

// Km value for `CN[C@@H]1[C@@H](O)[C@@H](O[C@@H]2[C@@H](O)[C@H](O[C@H]3O[C@H](CN)[C@@H](O)[C@H](O)[C@H]3O)[C@@H](N)C[C@H]2NC(=O)[C@@H](O)CN)OC[C@]1(C)O` : 1.2

For this compound ( `NC[C@@H]1CC[C@@H](N)[C@@H](O[C@H]2[C@H](O)[C@@H](O[C@H]3O[C@H](CO)[C@@H](O)[C@H](N)[C@H]3O)[C@H](N)C[C@@H]2N)O1` ), measured Km is 1.2

// Nc1nc(=O)c2ncn([C@@H]3O[C@H](COP(=O)(O)OP(=O)(O)OP(=O)(O)O)[C@@H](O)C3O)c2[nH]1 (single isomer, unassigned) : Km value = 28.2

Record summary for `NCC[C@H](O)C(=O)N[C@@H]1C[C@H](N)[C@@H](O[C@H]2O[C@H](CN)[C@@H](O)[C@H](O)[C@H]2O)[C@H](O)[C@H]1O[C@H]1O[C@H](CO)[C@@H](O)[C@H](N)[C@H]1O` : reported Km = 23.7

Lookup result for `Nc1ncnc2c1ncn2[C@@H]1O[C@H](COP(=O)(O)OP(=O)(O)OP(=O)(O)O)[C@@H](O)[C@H]1O` ; measured Km: 29.5

Origin of the recorded values: ChEMBL document CHEMBL1255425
